Entry source: ChEMBL document CHEMBL4513216

Experiment: Toxicity liver stage against HepG2, at 10uM
Format: cell-based
Parameters: test concentration 10 uM, cell line HepG2-A16-CD81EGFP
Settings: human, HepG2-A16-CD81EGFP cells; read-out: INHIBITION
Assay readout: cytotoxicity at 10 µM (%)

{"Given smiles": "Cc1nnc2n1CCN(C(=O)c1cn(-c3ccccc3)nn1)C2", "Unit tag": "%", "Reported measurement": -146}
{"Given smiles": "CC(C)c1nn(C)c(N2CCOCC2)c1CNCCC(=O)N(C)C", "Unit tag": "%", "Reported measurement": -16.5}
{"Given smiles": "COc1ccc(Br)c(C(=O)NCC2CCN(S(=O)(=O)C3CC3)CC2)c1", "Unit tag": "%", "Reported measurement": -24.3}

----------
Experiment: Toxicity liver stage against HepG2, at 10uM
Format: cell-based
Set-up: test concentration 10 uM, cell line HepG2-A16-CD81EGFP
Conditions: human, HepG2-A16-CD81EGFP cells; read-out: INHIBITION

{"Molecule": "CCc1cc(=O)[nH]c(NC2CCN(S(=O)(=O)c3ccccc3)CC2)n1", "cytotoxicity at 10 µM": "-5.49%"}
{"Molecule": "CC(C(=O)NCC1CCCCC1)S(=O)(=O)Cc1csc(-c2cccs2)n1 (stereo unspecified)", "cytotoxicity at 10 µM": "-9.44%"}
{"Molecule": "CCC(C(=O)NC1CCCCC1)n1ccc2ncccc2c1=O (stereo unspecified)", "cytotoxicity at 10 µM": "2.17%"}
{"Molecule": "CNC(=O)c1cccc(NCCOc2ccc(CC#N)cc2)c1C", "cytotoxicity at 10 µM": "-0.662%"}
{"Molecule": "CC(C)NC(=O)CN1CCSC2(CCCCC2)C1", "cytotoxicity at 10 µM": "-13.7%"}
{"Molecule": "COc1ccsc1C(=O)NCCNc1ccccc1", "cytotoxicity at 10 µM": "-4.15%"}
{"Molecule": "COC(=O)c1cccc2nc([C@H]3CCN(Cc4ccccc4)C3)oc12", "cytotoxicity at 10 µM": "6.06%"}
{"Molecule": "COc1c(C2CCCN2C(=O)c2cnc[nH]2)c(C)nn1C (stereo unspecified)", "cytotoxicity at 10 µM": "-1.68%"}
{"Molecule": "CC(=O)Nc1ccc(CN(C)Cc2snnc2C)cc1", "cytotoxicity at 10 µM": "-2.17%"}
{"Molecule": "CS(=O)(=O)N1CCCN(C(=O)c2ccc(Cn3ccccc3=O)o2)CC1", "cytotoxicity at 10 µM": "-3.41%"}
{"Molecule": "COCCN1CCCC2(CCN(Cc3nnc(C4CC4)o3)C2)C1=O (stereo unspecified)", "cytotoxicity at 10 µM": "0.15%"}
{"Molecule": "Cc1cc(NC(=O)NCc2cccnc2OC2CCCC2)n(C)n1", "cytotoxicity at 10 µM": "-1.07%"}
{"Molecule": "O=C(C1CCCCC1)N1CCC2(CC1)OCCO2", "cytotoxicity at 10 µM": "9.77%"}
{"Molecule": "O=C(NCC(F)(F)F)C1CSCN1S(=O)(=O)c1ccc(F)cc1 (stereo unspecified)", "cytotoxicity at 10 µM": "1.85%"}
{"Molecule": "O=C(CN1C(=O)c2ccccc2CS1(=O)=O)c1ccccc1", "cytotoxicity at 10 µM": "15.3%"}
{"Molecule": "CCc1nc(C(=O)N2CC(C(C)C)Nc3ccccc32)c[nH]1 (stereo unspecified)", "cytotoxicity at 10 µM": "-0.0979%"}
{"Molecule": "CO[C@H]1CCN(c2ccc(C)nn2)[C@H]1Cc1cnn(C)c1", "cytotoxicity at 10 µM": "-12.7%"}
{"Molecule": "CC(CN1CCCC1=O)NC(=O)c1ccc(C(F)(F)F)[nH]c1=O (stereo unspecified)", "cytotoxicity at 10 µM": "-4.48%"}
{"Molecule": "Cc1nc(CN2CCC(CNC(=O)CCC3CCCC3)CC2)oc1C", "cytotoxicity at 10 µM": "-1.29%"}
{"Molecule": "Cc1cc(C)n2nc(CC(=O)N[C@H]3C[C@H]4CN(C)CCN4C3)nc2n1", "cytotoxicity at 10 µM": "-2.9%"}
{"Molecule": "O=C(c1cccc2[nH]ccc12)N1CCC2(CCOC2)C1 (stereo unspecified)", "cytotoxicity at 10 µM": "-151%"}
{"Molecule": "Cc1cc(CN2CCC(C3CCN(CCc4ccccc4)CC3)C2)[nH]n1 (stereo unspecified)", "cytotoxicity at 10 µM": "9.2%"}
{"Molecule": "O=C1NCc2ccccc2CC12CCN(Cc1ccncc1Cl)C2 (stereo unspecified)", "cytotoxicity at 10 µM": "8.27%"}
{"Molecule": "O=c1[nH]c(NCc2cccc(-c3ccccc3)c2)nc2c1CCNC2", "cytotoxicity at 10 µM": "3.3%"}
{"Molecule": "OC1(CNCCSc2ccccn2)CNCCOC1 (stereo unspecified)", "cytotoxicity at 10 µM": "-9.41%"}
{"Molecule": "CC(c1nc(C2CC2)no1)N1CCN(Cc2ccccc2)CC1 (stereo unspecified)", "cytotoxicity at 10 µM": "-5%"}
{"Molecule": "CC(C)(C)N1CC(C(=O)N2CCN(CCn3cncn3)CC2)CC1=O (stereo unspecified)", "cytotoxicity at 10 µM": "-5.14%"}
{"Molecule": "CC(C)c1nnc(NCc2ccsc2)o1", "cytotoxicity at 10 µM": "-0.19%"}
{"Molecule": "CCc1c(C)n(CCOC)c2nc3ccccc3n2c1=O", "cytotoxicity at 10 µM": "-0.277%"}
{"Molecule": "Cc1cc(C)n(CC2CCCCN2C(=O)c2ccc(C(N)=O)cc2)n1 (stereo unspecified)", "cytotoxicity at 10 µM": "3.09%"}
{"Molecule": "CCCNC(=O)N1CCC(Oc2cc(C)ccc2F)(C(=O)O)CC1", "cytotoxicity at 10 µM": "-23.8%"}

----------
Experiment: Toxicity liver stage against HepG2, at 10uM
Format: cell-based
Design: test concentration 10 uM, cell line HepG2-A16-CD81EGFP
Details: human, HepG2-A16-CD81EGFP cells; read-out: INHIBITION
Assay readout: cytotoxicity at 10 µM (%)

{"Compound": "Cc1nc(C(C)(C)NC(=O)Nc2cccc(C#N)c2)no1", "Reported measurement": -7.79}
{"Compound": "Cc1cc(CN2C[C@@H]3CCCO[C@@H]3[C@H](NS(C)(=O)=O)C2)no1", "Reported measurement": 11.5}
{"Compound": "Cc1ccn2ncc(C(=O)N3CCCC(c4noc(C)n4)C3)c2n1 (stereo unspecified)", "Reported measurement": -7.29}
{"Compound": "NC1CCc2nc(-c3ccncc3)nc(Nc3cccc(F)c3)c2C1 (stereo unspecified)", "Reported measurement": 26.4}
{"Compound": "COC(=O)COc1cccc(NS(=O)(=O)c2cc(C(=O)O)cs2)c1", "Reported measurement": -5.25}
{"Compound": "Cc1cc(C)n(-c2ccc(C(=O)NCC(CO)Cc3ccco3)cc2)n1 (stereo unspecified)", "Reported measurement": 3.62}
{"Compound": "CCCS(=O)(=O)N1Cc2nccn2CC(Cn2cncn2)C1 (stereo unspecified)", "Reported measurement": -0.158}
{"Compound": "COCC(=O)N1CCC(c2cc(C(F)(F)F)n3ccnc3n2)CC1", "Reported measurement": 1.44}
{"Compound": "Cc1cc2ccccc2n1CC(=O)NC(C)C(=O)N1CCOCC1 (stereo unspecified)", "Reported measurement": 3.57}
{"Compound": "CCC(Nc1nccc(C2CCCC2)n1)c1ccncc1 (stereo unspecified)", "Reported measurement": -63.8}
{"Compound": "O=C(C1CCC2(CCN(CC3CCOCC3)CC2)O1)N1CCCC1 (stereo unspecified)", "Reported measurement": 1.91}
{"Compound": "Cc1ccc(S(=O)(=O)N2CCN(CCC#N)CC2)s1", "Reported measurement": -10.8}
{"Compound": "CC(CCc1ccccc1)NC(=O)CN1CCOCC1 (stereo unspecified)", "Reported measurement": 4.17}
{"Compound": "Cc1ncsc1CNC(=O)N(Cc1ccccc1)CC(C)(C)O", "Reported measurement": -10.2}
{"Compound": "COCc1cc(C[C@@H]2CC[C@H](O)[C@@H](CN(CC(C)C)CC(C)C)O2)no1", "Reported measurement": 0.169}
{"Compound": "Cc1nnc(CN(Cc2cccc(Cl)c2)C(C)C)o1", "Reported measurement": 1.69}

----------
Catalogue of compounds with associated cytotoxicity at 10 µM
Test: Toxicity liver stage against HepG2, at 10uM
Assay type: cell-based
Parameters: test concentration 10 uM, cell line HepG2-A16-CD81EGFP
Conditions: human, HepG2-A16-CD81EGFP cells; read-out: INHIBITION

{"Compound": "c1ccc(COC[C@H]2CCC[C@@]23CNCCO3)nc1", "cytotoxicity at 10 µM": "-91.9%"}
{"Compound": "CC(=O)Nc1ccc(-c2ccccc2NC(=O)CN)cc1", "cytotoxicity at 10 µM": "2.83%"}
{"Compound": "Cc1noc(C)c1CS(=O)(=O)C(C)C(=O)N(C)c1ccccc1 (stereo not given)", "cytotoxicity at 10 µM": "-1.58%"}
{"Compound": "CCn1nccc1CNC(=O)C1CC1", "cytotoxicity at 10 µM": "-12.2%"}
{"Compound": "Cc1cccc(OC2CCN(c3nccnc3C#N)CC2)n1", "cytotoxicity at 10 µM": "1.1%"}
